# Test system: BT-549 breast
# protocol_text: NCI-60 one-dose screen, 48 h (100 = growth as untreated, 0 = no growth, -100 = all killed)
# experimental_parameters: 10 µM unless noted
Compounds without any hit were thinned out: in the full panel of roughly 83,000, 20% have a hit.
Note to self: class labels come from recorded growth, ranges listed here: class A = under 70%, class B = from 70% up to 90%, class C = 90% and over

| compound | classification |
| --- | --- |
| COc1cccc(-c2nc(SCC(=O)Nc3ccc(C(=O)/C=C/c4ccc(OC)c(OC)c4)cc3)[nH]c(=O)c2C#N)c1 | class B |
| Cc1cc2nc(NC(=O)CN3CCN(CCN4C(=O)c5cccc6cccc(c56)C4=O)CC3)sc2cc1C | class B |
| N#C/C(=C\c1ccc(-c2cc(C(F)(F)F)ccc2Cl)o1)c1nc(-c2ccco2)cs1 | class C |
| COc1ccc(-n2nc(C)c3c(Nc4ccc(NC(=O)Nc5cccc(C(F)(F)F)c5)cc4)ncnc32)cc1 | class A |
| CCCSc1ccc2nc(NC(=O)OC)[nH]c2c1 | class A |
| COc1cccc(C2=NN3C(C2)c2cc(Br)cc(OC)c2OC32CCN(Cc3ccccc3)CC2)c1 (configuration not stated) | class C |
| CN(C)CCCNc1c2ccccc2nc2ccccc12 | class B |
| CC[C@@H]1O[C@H](O[C@@H](c2cnc[nH]2)[C@H](NC(=O)c2nc([C@H](CC(N)=O)NC[C@@H](N)C(N)=O)nc(N)c2C)C(=O)N[C@H](C)[C@H](O)[C@H](C)C(=O)N[C@@H](C(=O)NCCc2nc(-c3nc(C(=O)NCCCCN=C(N)N)cs3)cs2)[C@@H](C)O)[C@H](O[C@@H]2O[C@H](CO)[C@H](O)[C@H](OC(N)=O)[C@@H]2O)[C@H](C)[C@@H]1C | class B |
| CN1CCN=C1c1ccc(NC(=O)c2ccc(C(=O)Nc3ccc(C4=NCCN4C)cc3)cc2)cc1 | class C |
| Cc1ccc(NC(=O)/C=C/c2ccccc2)c(C(N)=O)c1 | class C |
| CC(O)CN1CC(O)=C(c2nc3ccccc3s2)C1=N (configuration not stated) | class C |
| O=C(N/N=C/c1ccccc1O)c1ccccc1Nc1ccnc(C(F)(F)F)c1 | class A |
| COc1cc(CNc2oc(-c3ccccc3)c(-c3ccccc3)c2C#N)cc(CN2CCN(C)CC2)c1O | class B |
| O=c1cc(/C(=C2/C=CC=N2)c2ccc[nH]2)c2cc(Cl)ccc2o1 | class A |
| CC(C)(C)c1cc(/C=N\NC(=O)/C=C/C=C/c2ccc3c(c2)OCO3)c(O)c(C(C)(C)C)c1 | class C |

----------
Examples of compounds with documented growth follow.
# Tested on: OVCAR-4 ovarian
# protocol_text: NCI-60 one-dose screen, 48 h (100 = growth as untreated, 0 = no growth, -100 = all killed)
# experimental_parameters: 10 µM unless noted
About 83,000 compounds went through this panel and 20% of them were active in at least one assay; those are over-represented in the sample as a whole.

| compound | system_under_test | value_units | growth |
| --- | --- | --- | --- |
| NC(N)=N/N=C(/c1ccccc1)c1ccc(F)cc1 | OVCAR-4 ovarian | % | 27.9 |
| O=C(/C=C/C=C/c1ccc2c(c1)OCO2)N/N=C\c1ccc(O)cc1O | OVCAR-4 ovarian | % | 9.43 |
| CCOC(=O)c1sc2nc(-c3cccc(OC)c3)nc(N3CCOCC3)c2c1C | OVCAR-4 ovarian | % | 96.2 |
| C=CC(=O)Nc1cccc(-c2nc(SC)nc(NCCc3ccc(OC)c(OC)c3)c2C#N)c1 | OVCAR-4 ovarian | % | 19.4 |
| O=C1NC(=O)C(c2ccc(Cl)cc2Cl)N1 (stereo not given) | OVCAR-4 ovarian | % | 113 |
| Nc1n[nH]c2cc(F)c([C@@H]3Nc4ccc5[nH]ncc5c4[C@H]4C5CCC(C5)[C@@H]34)cc12 (stereo not given in full) | OVCAR-4 ovarian | % | 32.1 |
| O=C(/C=C/c1cccc(Cl)c1)c1ccc(O)c(CN2CCN(c3cc4c(cc3F)c(=O)c(C(=O)O)cn4C3CC3)CC2)c1 | OVCAR-4 ovarian | % | 79.5 |
| COC[C@H](C)n1c(C2CCOCC2)nc2cnc3cc(-c4c(C)noc4C)c(OC)cc3c21 | OVCAR-4 ovarian | % | 54.7 |
| C=C1C(=O)O[C@H]2[C@H]1CC/C(C=Nc1ccc(C(F)(F)F)cc1N)=C\CC[C@@]1(C)O[C@@H]21 | OVCAR-4 ovarian | % | 23.3 |
| COc1cc2c(cc1-c1c(C)noc1C)ncc1nc(-c3ccccn3)n([C@H](C)COC(F)F)c12 | OVCAR-4 ovarian | % | 52.6 |
| O=C(Nc1cccc2[nH]c(C(F)(F)F)nc12)c1ccc(-n2cnnn2)cc1 | OVCAR-4 ovarian | % | 90.5 |
| Cc1ncc(C(=O)Nc2ccc(CN3CCN(C)CC3)c(C(F)(F)F)c2)cc1C#Cc1cnc2cccnn12 | OVCAR-4 ovarian | % | -17 |
| CC(C)(C)c1cc(/C=N\NC(=O)/C=C/C=C/c2ccc3c(c2)OCO3)c(O)c(C(C)(C)C)c1 | OVCAR-4 ovarian | % | 34.8 |
| COc1cccc(-c2nc3sccn3c2-c2ccnc(NCCCNS(=O)(=O)c3cccc(Cl)c3)c2)c1 | OVCAR-4 ovarian | % | 32.6 |
| Cc1cc(C)c2nc3nc(C)cc(C)c3c(N)c2c1 | OVCAR-4 ovarian | % | 33.6 |
| CC[N+](CC)=c1sc2c(s1)C(c1ccc(Cl)cc1)Oc1ccc(Cl)cc1-2 (stereo not given) | OVCAR-4 ovarian | % | 9.29 |
| c1ccc(-c2c(-c3ccccc3)[n+](Cc3ccc4ccccc4c3)c(-c3ccc(-c4nc5ccccc5s4)cc3)n2Cc2ccc3ccccc3c2)cc1 | OVCAR-4 ovarian | % | -62.9 |
| O=C(Oc1cccnc1)c1ccsc1Nc1ccnc(C(F)(F)F)c1 | OVCAR-4 ovarian | % | 60.2 |
| N#CN1CC[C@H](C(=O)Nc2cc3cc(C(N)=O)ccc3cn2)C1 | OVCAR-4 ovarian | % | 4.32 |
| C=CC(=O)Nc1cccc(-c2nc(SC)nc(NCCN3CCOCC3)c2C#N)c1 | OVCAR-4 ovarian | % | 90.6 |
| COC(=O)c1ccc(NC(=O)c2ccc(-c3cccc([N+](=O)[O-])c3)o2)cc1 | OVCAR-4 ovarian | % | 92.7 |
| O=C(COc1cccc(/C=C2\CSc3ccccc3C2=O)c1)Nc1nccs1 | OVCAR-4 ovarian | % | 78.3 |
| Oc1ccc(N=Cc2ccccc2O)cc1 | OVCAR-4 ovarian | % | 89.3 |
| CCn1c(O)c(/C=N/NC(=O)C(C)c2ccc(CC(C)C)cc2)sc1=S (stereo not given) | OVCAR-4 ovarian | % | 56.7 |
| Cn1c(O)c(N=NC(=O)c2cc(-c3ccccc3)on2)c2ccccc21 | OVCAR-4 ovarian | % | 95.7 |
| CCOC(=O)n1cc(-c2nonc2-c2cn(C)c3ncccc23)c2cc(F)ccc21 | OVCAR-4 ovarian | % | 55.3 |
| O=C(O)COc1ccc(Cl)cc1C1CCCCC1 | OVCAR-4 ovarian | % | 109 |
| CCOc1cc2c(cc1OCC)C(c1cc(OC)c(O)cc1Cl)NCC2 (stereo not given) | OVCAR-4 ovarian | % | 89.2 |
| COc1cccc(/C=C2\SC(=Nc3ccc(NC(C)=O)cc3)NC2=O)c1OC | OVCAR-4 ovarian | % | 100 |
| COc1cc2nc(N3CCCC3)nc(NCCc3ccccc3)c2cc1OC | OVCAR-4 ovarian | % | -2.44 |
| COc1cc2c(cc1O)CC[C@@H]1[C@@H]2CC[C@]2(C)[C@@H](NCCN(C)C)CC[C@@H]12 | OVCAR-4 ovarian | % | -63.3 |
| CC(=O)c1cc(C(=O)c2ccc3c(c2)Sc2ccccc2N3)n2ccccc12 | OVCAR-4 ovarian | % | 40.9 |
| CCOC(=O)C(C)(C#N)C1C=CCCC1 (stereo not given) | OVCAR-4 ovarian | % | 91.5 |
| COc1ccc2c(c1)C(=O)/C(=C/c1ccccn1)CC2 | OVCAR-4 ovarian | % | 83.8 |
| Nc1n[nH]c2ccc([C@@H]3Nc4ccc5[nH]ncc5c4[C@H]4C5C=CC(C5)[C@@H]34)cc12 (stereo not given in full) | OVCAR-4 ovarian | % | 30.2 |
| COc1ccc(-c2cc(NC(=O)Nc3ccc4ncsc4c3)no2)cc1 | OVCAR-4 ovarian | % | 96.2 |
| Cc1nc(Nc2ccc(F)c(Cl)c2)sc1C(=O)O | OVCAR-4 ovarian | % | 21.7 |
| O=C(/C=C/c1cc(CN2CCOCC2)c(O)c2ncccc12)c1cc(CN2CCOCC2)c(O)c2ncccc12 | OVCAR-4 ovarian | % | 30.3 |
| CC(C)(C)CC(C)(C)c1ccc(OCCOCC[N+](C)(C)Cc2ccccc2)cc1 | OVCAR-4 ovarian | % | -16 |
| COc1ccc(C2CC(c3ccc(Cl)cc3)=NN2/C=C2\SC(=S)N(NC(=O)Cc3ccccc3Nc3c(Cl)cccc3Cl)C2=O)cc1 (stereo not given) | OVCAR-4 ovarian | % | 74.7 |
